Reference for the values: ChEMBL document CHEMBL3232725

assay: Cytotoxicity against human MCF7 cells after 48 hrs by XTT reduction assay; format: cell-based
experimental.readout: log10 of CC50 at 48 h (log10 of the value in µM)
Parameter value (number): base-10 log of CC50 at 48 h in µM.

[ask] Recorded log10 of CC50 at 48 h of `COc1ccc(C2=Nc3ccccc3C2=O)cc1` , please.
[reply] 1.58

[ask] Entry `COc1ccc(C2=Nc3ccc(OC)cc3C2=O)cc1` : reported log10 of CC50 at 48 h = ?
[reply] 1.49

[ask] For the molecule shown here, `COc1ccc2c(c1)C(=O)C(c1ccc(O)cc1)=N2` , give the reported log10 of CC50 at 48 h.
[reply] 1.20

[ask] Which log10 of CC50 at 48 h is listed for `COc1ccc2c(c1)C(=O)C(c1ccccc1)=N2` ?
[reply] 1.32

[ask] // query log10 of CC50 at 48 h value for entry `O=C1C(c2ccccc2)=Nc2ccccc21`
[reply] 2.21

[ask] Given `O=C1C(c2ccc(O)cc2)=Nc2ccccc21` , state its recorded log10 of CC50 at 48 h.
[reply] 2.11

[ask] May I ask what log10 of CC50 at 48 h has been recorded for `COc1ccc2c(c1)C(=O)C(c1ccc(N(C)C)cc1)=N2` ?
[reply] 1.32

[ask] So what's the measured log10 of CC50 at 48 h for this one? `COc1ccc2c(c1)C(=O)C(c1ccc(OC(C)C)cc1)=N2`
[reply] 1.05

[ask] Look up log10 of CC50 at 48 h: `O=C1C(c2ccc(Cl)cc2)=Nc2ccccc21`
[reply] 1.31
